# credit: patent EP0881220A1

systemUnderTest: sigma 2 binding site (Rattus norvegicus)
testProtocol: Sigma 2 selective receptor binding inhibition assay with [^3H]-di-o-tolylguanidine
pKi: −log10 of the molar value. Counter-ions that a name gives are not always drawn.
Lab note: compare pKi against 8. Equal or greater, write y. Smaller, write n.

Example results:
CN(CCCCN1c2ccccc2Oc2ccc(Cl)cc2S1(=O)=O)CC(O)c1ccc(F)cc1 (racemic) [Example 24, hydrochloride]	n
O=S1(=O)c2cc(Cl)ccc2Oc2ccccc2N1CC1CCN(CC(O)c2ccccc2)CC1 (racemic) [Example 15, hydrochloride]	y
O=S1(=O)c2cc(Cl)ccc2Oc2ccccc2N1CC1CCN(CC(O)C23CC4CC(CC(C4)C2)C3)CC1 (racemic) [Example 14, hydrochloride]	y

Okay, next one:
Textbook exercise: given the entry O=C(CN1CCC(CN2c3ccccc3Nc3ccccc3S2(=O)=O)CC1)C12CC3CC(CC(C3)C1)C2 [Example 1] , state whether its pKi is greater than or equal to 8.
y

====

systemUnderTest: sigma 1 binding site (Cavia porcellus, UniProt Q60492)
Sequence (Q60492 whole entry): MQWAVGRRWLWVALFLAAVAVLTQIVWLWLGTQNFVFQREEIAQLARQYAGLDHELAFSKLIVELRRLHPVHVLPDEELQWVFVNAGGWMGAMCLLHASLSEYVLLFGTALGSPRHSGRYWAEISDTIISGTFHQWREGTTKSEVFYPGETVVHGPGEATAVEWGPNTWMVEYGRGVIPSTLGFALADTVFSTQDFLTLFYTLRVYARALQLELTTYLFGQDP
testProtocol: biochemical
pKi: −log10 of the molar value. Structures can show the parent of a compound that is named as a salt.
Output 1 (yes) for pKi not less than 6; output 0 (no) otherwise.

Sample answers from the record:
O=S1(=O)c2cc(Cl)ccc2Oc2ccccc2N1CC1CCN(CC(O)c2ccccc2)CC1 (racemic) [Example 15, hydrochloride]	1 (yes)
Cc1ccccc1C(O)CN1CCC(CN2c3ccccc3Nc3ccccc3S2(=O)=O)CC1 (racemic) [Example 5, hydrochloride]	1 (yes)

Would you say COc1ccc2c(c1)N(CC1CCN(CC(O)c3ccc(F)cc3)CC1)S(=O)(=O)c1ccccc1O2 (racemic) [Example 22, hydrochloride] shows pKi at minimum 6?
1 (yes)

====

systemUnderTest: sigma 2 binding site (Rattus norvegicus, UniProt Q5U3Y7)
testProtocol: Sigma 2 selective receptor binding inhibition assay with [^3H]-di-o-tolylguanidine
Where a name gives a salt, the structure may show the parent alone.
Decision: Ki beneath 3 nM gives true; Ki meeting or exceeding 3 nM gives false.

Please review the entries below; each comes with its answer.
O=S1(=O)c2cc(Cl)ccc2Oc2ccccc2N1CC1CCN(CC(O)c2ccc(OC(F)(F)F)cc2)CC1 (racemic) [Example 19, hydrochloride]	false
Cc1ccc(C(O)CN2CCC(CN3c4ccccc4Oc4ccccc4S3(=O)=O)CC2)cc1 (racemic) [Example 13, hydrochloride]	true

In plain terms, does Cc1ccccc1C(O)CN1CCC(CN2c3ccccc3Nc3ccccc3S2(=O)=O)CC1 (racemic) [Example 5, hydrochloride] come in under 3 nM for Ki?
false

Given the entry O=S1(=O)c2cc(Cl)ccc2Oc2ccccc2N1CC1CCN(CC(O)c2ccc(C(F)(F)F)cc2)CC1 (racemic) [Example 18, hydrochloride] , would its reported Ki be below 3 nM?
false

hey, is Ki for CN1c2ccccc2N(CC2CCN(CC(O)C34CC5CC(CC(C5)C3)C4)CC2)S(=O)(=O)c2ccccc21 (racemic) [Example 6, hydrochloride] lower than 3 nM or not?
true

Say whether its Ki is strictly beneath 3 nM. Entry: O=S1(=O)c2ccccc2Nc2ccccc2N1CC1CCN(CC(O)c2ccc(F)cc2F)CC1 (racemic) [Example 3, hydrochloride]
false

====

This listing pairs compounds with measured S2/S1 Ratio.
systemUnderTest: sigma 2 binding site (Rattus norvegicus, UniProt Q5U3Y7)
testProtocol: Sigma 2 selective receptor binding inhibition assay with [^3H]-di-o-tolylguanidine
setupConditions: ratio of Sigma 2 Ki to Sigma 1 Ki
Structures can show the parent of a compound that is named as a salt.
Give your answer as a number; write no unit.

Some entries whose results are on file:
O=C(O)/C=C/C(=O)O.O=S1(=O)c2ccccc2Nc2ccccc2N1CC1CCN(C[C@H](O)C23CC4CC(CC(C4)C2)C3)CC1.O=S1(=O)c2ccccc2Nc2ccccc2N1CC1CCN(C[C@H](O)C23CC4CC(CC(C4)C2)C3)CC1	0.01
O=S1(=O)c2cc(Cl)ccc2Oc2ccccc2N1CC1CCN(CC(O)c2ccc(C(F)(F)F)cc2)CC1 (racemic) [Example 18, hydrochloride]	0.003
CN1c2ccccc2N(CC2CCN(CC(O)c3ccc(F)cc3)CC2)S(=O)(=O)c2ccccc21 (racemic) [Example 7, hydrochloride]	0.007
COc1ccc2c(c1)N(CC1CCN(CC(O)c3ccc(F)cc3)CC1)S(=O)(=O)c1ccccc1O2 (racemic) [Example 22, hydrochloride]	0.05
O=S1(=O)c2cc(Cl)ccc2Oc2ccccc2N1CC1CCN(CC(O)c2ccc(OC(F)(F)F)cc2)CC1 (racemic) [Example 19, hydrochloride]	0.007

Here is the next item to consider.
Fill in: S2/S1 Ratio of O=S1(=O)c2cc(Cl)ccc2Oc2ccccc2N1CC1CCN(CC(O)c2ccc3ccccc3c2)CC1 (racemic) [Example 17, hydrochloride] is ___
0.008

====

systemUnderTest: Dopamine D2 (Rattus norvegicus)
Construct: dopaminergic receptors was also measured using rat striata
Sequence (P61169 whole entry): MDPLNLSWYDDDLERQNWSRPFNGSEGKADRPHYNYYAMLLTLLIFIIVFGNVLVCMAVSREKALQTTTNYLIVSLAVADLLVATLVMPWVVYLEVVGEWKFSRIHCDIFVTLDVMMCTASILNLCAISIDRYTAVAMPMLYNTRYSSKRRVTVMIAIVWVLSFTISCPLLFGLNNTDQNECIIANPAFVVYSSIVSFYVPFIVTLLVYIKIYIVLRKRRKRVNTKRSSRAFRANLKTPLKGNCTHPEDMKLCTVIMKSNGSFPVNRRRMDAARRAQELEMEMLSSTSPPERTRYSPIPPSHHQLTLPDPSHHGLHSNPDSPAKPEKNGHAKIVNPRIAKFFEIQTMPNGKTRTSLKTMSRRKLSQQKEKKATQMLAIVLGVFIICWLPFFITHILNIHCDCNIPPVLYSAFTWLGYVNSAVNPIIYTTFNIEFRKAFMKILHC
testProtocol: Binding to dopaminergic receptors using rat striata (method of Terai et al.)
Structures can show the parent of a compound that is named as a salt.
Measured pKi values are reported for all entries that follow.
Worth noting: pKi values are minus log10 of concentrations stated in mol/L.

// solved cases for pKi follow
O=S1(=O)c2cc(Cl)ccc2Oc2ccccc2N1CC1CCN(CC(O)C23CC4CC(CC(C4)C2)C3)CC1 (racemic) [Example 14, hydrochloride]	6.92
O=S1(=O)c2cc(Cl)ccc2Oc2ccccc2N1CC1CCN(CC(O)c2ccc(OC(F)(F)F)cc2)CC1 (racemic) [Example 19, hydrochloride]	6.57
O=S1(=O)c2cc(Cl)ccc2Oc2ccccc2N1CC1CCN(CC(O)c2ccc3ccccc3c2)CC1 (racemic) [Example 17, hydrochloride]	6.46
O=S1(=O)c2cc(Cl)ccc2Oc2ccccc2N1CC1CCN(CC(O)c2ccc(F)cc2)CC1 (racemic) [Example 16, hydrochloride]	6.68
Cc1ccc(C(O)CN2CCC(CN3c4ccccc4Oc4ccccc4S3(=O)=O)CC2)cc1 (racemic) [Example 13, hydrochloride]	6.74

State the recorded pKi for this entry: CN1c2ccccc2N(CC2CCN(CC(O)C34CC5CC(CC(C5)C3)C4)CC2)S(=O)(=O)c2ccccc21 (racemic) [Example 6, hydrochloride]
6.77

Any idea what its pKi is? The compound is O=S1(=O)c2cc(Cl)ccc2Oc2ccccc2N1CC1CCN(CC(O)c2ccc(C(F)(F)F)cc2)CC1 (racemic) [Example 18, hydrochloride]
6.46

Would you mind telling me what pKi value was observed for "O=C(O)/C=C/C(=O)O.O=S1(=O)c2ccccc2Nc2ccccc2N1CC1CCN(C[C@H](O)C23CC4CC(CC(C4)C2)C3)CC1.O=S1(=O)c2ccccc2Nc2ccccc2N1CC1CCN(C[C@H](O)C23CC4CC(CC(C4)C2)C3)CC1" ?
6.35

====

systemUnderTest: sigma 2 binding site (Rattus norvegicus, UniProt Q5U3Y7)
testProtocol: Sigma 2 selective receptor binding inhibition assay with [^3H]-di-o-tolylguanidine
setupConditions: ratio of Sigma 2 Ki to Sigma 1 Ki
Counter-ions that a name gives are not always drawn.
measuredMetric: S2/S1 Ratio
Lab note: write the figure by itself, no unit.

Examples from the recorded data:
CN1c2ccccc2N(CC2CCN(CC(O)C34CC5CC(CC(C5)C3)C4)CC2)S(=O)(=O)c2ccccc21 (racemic) [Example 6, hydrochloride]	0.001
O=S1(=O)c2cc(Cl)ccc2Oc2ccccc2N1CC1CCN(CC(O)C23CC4CC(CC(C4)C2)C3)CC1 (racemic) [Example 14, hydrochloride]	0.008
O=S1(=O)c2ccccc2Oc2ccccc2N1CC1CCN(CC(O)c2ccc(Cl)cc2)CC1 (racemic) [Example 11, hydrochloride]	0.05

Turning now to a further record.
Look up S2/S1 Ratio for this molecule: O=C(CN1CCC(CN2c3ccccc3Nc3ccccc3S2(=O)=O)CC1)C12CC3CC(CC(C3)C1)C2 [Example 1]
0.03

====

systemUnderTest: sigma 2 binding site (Rattus norvegicus, UniProt Q5U3Y7)
Sequence (Q5U3Y7 1-176): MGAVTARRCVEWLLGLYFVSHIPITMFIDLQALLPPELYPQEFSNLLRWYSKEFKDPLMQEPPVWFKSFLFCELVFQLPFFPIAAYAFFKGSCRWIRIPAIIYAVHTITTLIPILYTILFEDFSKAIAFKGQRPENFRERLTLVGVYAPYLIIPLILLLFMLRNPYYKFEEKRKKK
testProtocol: Sigma 2 selective receptor binding inhibition assay with [^3H]-di-o-tolylguanidine
Structures can show the parent of a compound that is named as a salt.
measuredMetric: Ki (nM)
Dear colleague, please return just the value in nM, with no unit written.

CN(CCCCN1c2ccccc2Oc2ccc(Cl)cc2S1(=O)=O)CC(O)C12CC3CC(CC(C3)C1)C2 (racemic) [Example 23, hydrochloride]	35

Consider the compound O=S1(=O)c2cc(Cl)ccc2Oc2ccccc2N1CC1CCN(CC(O)c2ccc(F)cc2)CC1 (racemic) [Example 16, hydrochloride] and give its measured Ki.
1.1

Returns the measured Ki for the input compound. Input: COc1ccc2c(c1)N(CC1CCN(CC(O)c3ccc(F)cc3)CC1)S(=O)(=O)c1cc(Cl)ccc1O2 (racemic) [Example 21, hydrochloride]
9

Item COc1ccc(C(O)CN2CCC(CN3c4ccccc4Oc4ccccc4S3(=O)=O)CC2)cc1 (racemic) [Example 12, hydrochloride] has what recorded Ki?
7.1

For the compound shown here, O=S1(=O)c2cc(Cl)ccc2Oc2ccccc2N1CC1CCN(CC(O)c2ccc3ccccc3c2)CC1 (racemic) [Example 17, hydrochloride] , give the reported Ki.
4.2

Fill blank: measured Ki of the compound O=S1(=O)c2ccccc2Oc2ccccc2N1CC1CCN(CC(O)c2ccc(Cl)cc2)CC1 (racemic) [Example 11, hydrochloride] is ____.
2.3

// returns reported Ki for input CN1c2ccccc2N(CC2CCN(CC(O)c3ccc(F)cc3)CC2)S(=O)(=O)c2ccccc21 (racemic) [Example 7, hydrochloride]
4

Item under review: COc1ccc2c(c1)N(CC1CCN(CC(O)c3ccc(F)cc3)CC1)S(=O)(=O)c1ccccc1O2 (racemic) [Example 22, hydrochloride] . Reported Ki?
3.7
